test: Drug absorption in human assessed as human intestinal absorption rate; type: ADME, tissue-based, Intestine
Each item that follows carries a reported log10(%HIA +10).
readout_label: log10(%HIA +10)

compound	quantitative_result
CN1C[C@H](C(=O)N[C@]2(C)O[C@@]3(O)[C@@H]4CCCN4C(=O)[C@H](Cc4ccccc4)N3C2=O)C[C@@H]2c3cccc4[nH]cc(c34)C[C@H]21 [DIHYDROERGOTAMINE]	1.653
NCCCC(N)(C(=O)O)C(F)F (stereo unspecified)	1.813
NC(N)=Nc1nc(CSCCC(N)=NS(N)(=O)=O)cs1	1.681
CC(CCc1ccccc1)NCC(O)c1ccc(O)c(C(N)=O)c1 (stereo unspecified)	2.021
NC(CO)C(=O)NNCc1ccc(O)c(O)c1O (stereo unspecified) [BENSERAZIDE]	1.903
NC(=O)OCC(COC(N)=O)c1ccccc1 [FELBAMATE]	2

Sourced from ChEMBL document CHEMBL1649380
